Recorded measurements of TGI, one per entry
Tested on: UO-31 renal
Assay: NCI tumour cell line growth inhibition, 48 h

// below: answered compounds
compound	experimental_result
O=P1(c2ccccc2)c2ccccc2CCc2ccccc21	> 100 µM
CC(=O)OC(C)c1cc2c(s1)C(=O)c1scc(C(C)OC(C)=O)c1C2=O (centres undefined)	0.451 µM

Name the reported TGI value associated with the compound `O=[As](O)(O)c1ccc(N=Nc2ccc([As](=O)(O)O)cc2)cc1`
> 100 µM

Name the reported TGI value associated with the compound `CC(=O)O[C@H](C[C@H](C(C)C)N(C)C(=O)[C@@H](NC(=O)[C@H]1CCCCN1C)C(C)C)c1nc(C(=O)N[C@@H](Cc2ccccc2)C[C@H](C)C(=O)O)c(C(C)C)s1`
> 33.3 µM

====

Tested on: MALME-3M melanoma
Assay: NCI tumour cell line growth inhibition, 48 h; in the data active = GI50 below about 0.43 µM; inactive = the rest
Field 'call' accepts t = active, f = inactive

// below: answered compounds
compound	category_label
CN(C)c1ncnc2c1nnn2C1OC(CO)C(O)C1O (stereo not drawn)	t
COC(=O)[C@]12CC[C@@H](C)[C@H](C)[C@@H]1C1=CC[C@@H]3[C@@]4(C)C(C=O)=C[C@@](C)(COC(=O)c5ccco5)[C@@H]4C(=O)C[C@@]3(C)[C@]1(C)CC2	t
CN(C)c1ccc(/C=C(\C#N)c2nc3ccccc3n2C)cc1	f
O=C(Nc1ccc(Oc2ccc3nc(NC(=O)c4ccccc4)[nH]c3c2)cc1)Nc1cc(C(F)(F)F)ccc1F	f

Answer briefly: the call reported for `O=C1c2ccccc2C(=Cc2ccccc2)c2ccccc21` in this assay.
f

Answer briefly: the call reported for `CC(=O)O[C@H](C[C@H](C(C)C)N(C)C(=O)[C@@H](NC(=O)[C@H]1CCCCN1C)C(C)C)c1nc(C(=O)N[C@@H](Cc2ccccc2)C[C@H](C)C(=O)O)c(C(C)C)s1` in this assay.
t

Answer briefly: the call reported for `CN1CCN(Cc2ccc(NC(=O)c3cncc(C#Cc4cncc5ncccc45)c3)cc2C(F)(F)F)CC1` in this assay.
t

Answer briefly: the call reported for `Cn1c(O)c(C(/C=C/c2ccccc2)=NCCN=C(/C=C/c2ccccc2)c2c(O)n(C)c(=O)n(C)c2=O)c(=O)n(C)c1=O` in this assay.
f

====

Tested on: SW-620 colon
Assay: NCI tumour cell line growth inhibition, 48 h; in the data active = GI50 below about 0.43 µM; inactive = the rest
Field 'call' accepts 1 = active, -1 = inactive

// below: answered compounds
compound	assay_target	category_label
CN(C)CCOc1ccc(/C(=C(/CCCl)c2ccccc2)c2ccccc2)cc1	SW-620 colon	-1
Cc1cc(C2=NNC(=O)Cc3cc4c(cc32)OCCO4)cc(C)c1N	SW-620 colon	-1
CCCC[N+](CCCC)=c1ccc2nc3c(C)cc(N(CC)CC)cc3sc-2c1	SW-620 colon	1

Answer briefly: the call reported for `C=CC[P+](c1ccccc1)(c1ccccc1)c1ccccc1` in this assay.
-1

Answer briefly: the call reported for `CC(=O)O[C@H](C[C@H](C(C)C)N(C)C(=O)[C@@H](NC(=O)[C@H]1CCCCN1C)C(C)C)c1nc(C(=O)N[C@@H](Cc2ccccc2)C[C@H](C)C(=O)O)c(C(C)C)s1` in this assay.
1

Answer briefly: the call reported for O=C([O][Hg][CH2]C1COC([CH2][Hg][O]C(=O)c2ccccc2)CO1)c1ccccc1 (centres undefined) in this assay.
-1

Answer briefly: the call reported for `O=C(CSC(c1ccccc1)c1ccccc1)N/N=C/c1cccc(Cl)c1` in this assay.
-1

Answer briefly: the call reported for `COc1cc2nccc(Oc3ccc(NC(=O)C4(C(=O)Nc5ccc(F)cc5)CC4)cc3)c2cc1Oc1ccc(N)cn1` in this assay.
-1

Answer briefly: the call reported for `O=C(Nc1ccc(Cl)cc1F)c1cc(I)ccc1O` in this assay.
-1

====

System: MDA-MB-231 breast
Experiment: NCI tumour cell line growth inhibition, 48 h
Recorded measurements of TGI, one per entry

// below: answered compounds
> print(dat)
                                   compound  experimental.result
1  C=CC(C=O)C1(O)CCOC(=O)/C1=C\N (stereo not given)             > 100 µM
2  Cc1cccc(C(=O)/C=C/SC(=NC#N)SCc2ccccc2)c1              41.5 µM
3  CCOC(=O)CC1(O)CCCCC1(Sc1ccc(C)cc1)Sc1ccc(C)cc1 (stereo not given)             > 100 µM
4  O=C1c2ccccc2C(=O)c2c1ccc1nc3c(nc21)-c1c2ccccc2cc2cccc-3c12             > 100 µM

Name the reported TGI value associated with the compound `O=C1c2ccccc2-c2c1c(-c1ccc([N+](=O)[O-])cc1)nc1ccc3ccccc3c21`
> 100 µM

====

System: BT-549 breast
Experiment: NCI tumour cell line growth inhibition, 48 h; in the data active means GI50 below about 0.43 µM; inactive means the rest
Field 'call' accepts active, inactive

// below: answered molecules
molecule	assay_target	category_label
COC(=O)c1ccc(NC(=O)Nc2ccc3oc(=O)c4ccccc4c3c2)cc1	BT-549 breast	inactive
O=C(c1ccco1)c1nc2cc(F)ccc2[n+]([O-])c1C(F)(F)F	BT-549 breast	inactive
CC(=O)c1cc2c(cc1Nc1c3ccccc3nc3occ(Cl)c13)OCO2	BT-549 breast	active
CN(C)c1ccc(/C=C(\C#N)c2nc3ccccc3n2C)cc1	BT-549 breast	inactive
CC(=O)OCC(=O)O[C@@H]1C[C@]2(C(C)C)O[C@@]1(C)[C@@H]1CC[C@@H](C)[C@H]1[C@@H]2OC(=O)/C=C/c1ccccc1	BT-549 breast	active

Answer briefly: the call reported for Cc1noc(C)c1-c1cc(O)cc(C(O)c2ccccc2)c1 (centres undefined) in this assay.
inactive

Answer briefly: the call reported for `Cn1cc(C2=C(c3cccnc3)C(=O)NC2=O)c2ccccc21` in this assay.
inactive

Answer briefly: the call reported for `COC(=O)[C@]12CC[C@@H](C)[C@H](C)[C@@H]1C1=CC[C@@H]3[C@@]4(C)C(C=O)=C[C@@](C)(COC(=O)c5ccco5)[C@@H]4C(=O)C[C@@]3(C)[C@]1(C)CC2` in this assay.
inactive

Answer briefly: the call reported for `CC(=O)O[C@H](C[C@H](C(C)C)N(C)C(=O)[C@@H](NC(=O)[C@H]1CCCCN1C)C(C)C)c1nc(C(=O)N[C@@H](Cc2ccccc2)C[C@H](C)C(=O)O)c(C(C)C)s1` in this assay.
active

====

Recorded measurements of GI50, one per entry
Tested on: MCF7 breast
Assay: NCI tumour cell line growth inhibition, 48 h

> print(dat)
                              sample.smiles  assay.target  experimental.result
1  O=C(Nc1ccc(Oc2ccc3nc(NC(=O)c4ccccc4)[nH]c3c2)cc1)Nc1cc(C(F)(F)F)ccc1F   MCF7 breast               758 nM
2  N#Cc1ccc(N2Cc3ccccc3OC3=C2C(=O)c2c(O)ccc(O)c2C3=O)cc1   MCF7 breast               329 nM
3  CC(C)(C#N)c1cc(F)cc(C(=O)Nc2cc(Nc3ncccc3-c3ncnc4nc[nH]c34)ccc2F)c1   MCF7 breast              8730 nM
4  COc1ccc2c(c1)C(=O)C(=O)c1cc(O)c(OC)c(OC)c1-2   MCF7 breast              1960 nM
5  COC(=O)c1ccc(NC(=O)Nc2ccc3oc(=O)c4ccccc4c3c2)cc1   MCF7 breast             35200 nM

Let's switch to this compound now.
Name the reported GI50 value associated with the compound `C/C(=N\N=C(\[Se])N1CCN(c2ccccn2)CC1)c1ccccn1`
2.78 nM

====

System: M14 melanoma
Assay: NCI tumour cell line growth inhibition, 48 h
readout: TGI

// below: answered compounds
compound	TGI
CC(=O)c1c(C)n(C)c2c1nnc1ccccc12	> 100 µM
NCCCCN(CCCN)C(=O)c1ccccc1	> 100 µM
CC(=O)OC[C@@H]1[C@H]2CC[C@]3(C)[C@@H](OC(C)=O)CC[C@H]3[C@@H]2CC[C@H]1C1(C)SCCS1	> 25 µM
C=C(C)C1CC2(C)C(C)CC(OC(=O)/C(C)=C\C)CC2C(OC(=O)/C(C)=C\C)C1O (stereo not drawn)	> 100 µM
O=C(O)C1=C(C(=O)O)N(c2ccncc2)C(c2ccco2)=CC1c1ccccc1[N+](=O)[O-] (stereo not drawn)	22.5 µM

Name the reported TGI value associated with the compound CCOC(=O)C(NCc1ccc2c(c1)OCO2)(NC(=O)c1ccccc1)C(F)(F)F (stereo not drawn)
> 100 µM

Name the reported TGI value associated with the compound NNC(=S)N/N=C(/C(=O)Nc1cc(Cl)ccc1Cl)C1C(=O)Nc2ccccc2S1=O (stereo not drawn)
> 100 µM

Name the reported TGI value associated with the compound `CC/C(=C(/CC)c1ccc([O-])cc1)c1ccc([O-])cc1.CC/C(=C(\CC)c1ccc([O-])cc1)c1ccc([O-])cc1.O=C([CH-]C(=O)c1ccccc1)c1ccccc1.O=C([CH-]C(=O)c1ccccc1)c1ccccc1.O=C([CH-]C(=O)c1ccccc1)c1ccccc1.O=C([CH-]C(=O)c1ccccc1)c1ccccc1.[Ti+4].[Ti+4]`
78.8 µM

Name the reported TGI value associated with the compound `COC(=O)Nc1nc2ccc(S(=O)(=O)n3nnc4ccccc43)cc2[nH]1`
> 100 µM

Name the reported TGI value associated with the compound `CO/N=C(/C(=O)N(C(=O)/C(=N/OC)c1csc(NC(c2ccccc2)(c2ccccc2)c2ccccc2)n1)n1cnn(CC(=O)OC(C)(C)C)c1=O)c1csc(NC(c2ccccc2)(c2ccccc2)c2ccccc2)n1`
> 10 µM

Name the reported TGI value associated with the compound C=CC(C=O)C1(O)CCOC(=O)/C1=C\N (stereo not drawn)
> 100 µM

Name the reported TGI value associated with the compound `Oc1ccc(O)c(-c2cc(-c3ccccc3)nn2-c2ccccc2)c1`
25.4 µM

Name the reported TGI value associated with the compound CC(=O)OC(C)c1cc2c(s1)C(=O)c1scc(C(C)OC(C)=O)c1C2=O (stereo not drawn)
0.238 µM

Name the reported TGI value associated with the compound `CN(C)CCNC(=O)Cn1cc([N+](=O)[O-])c(=O)c2ccccc21`
> 100 µM

Name the reported TGI value associated with the compound `O=C(CSC(c1ccccc1)c1ccccc1)N/N=C/c1cccc(Cl)c1`
29 µM

src = PubChem BioAssay (NCI)
